Protocol Text: folding stability dG unfold from chymotrypsin proteolysis; higher = more stable
Endpoint Label: folding stability dG unfold

Sequence | Assay Value
SAGGSAGGSAGGGMPVPPVEVVEVSEEVRPLPPSSDKTVRRVTRTLPDGSTLTFEEPPESAGGSAGGSAGGS [r10_945_JUSTAS] | 0.459 kcal/mol
SAGGSAGGMTLVLEGMSEEELEELARKLRELAEELGLKVKITVERREDGRVRLTVEIELPEELPSAGGSAGG [r6_906_TrROS_Hall] | 3.69 kcal/mol
SAGGSAGGSAGEWVTIPIKNPEKLKDLPGLPIKDVEPNGGKPTITFNGDDPERIKEALNDSAGGSAGGSAGG [r11_65_TrROS] | 0.498 kcal/mol
SAGGSAGGKKKYLVKITIKYVDKKTGKLVKEETITVEVSEEELEELLKKLPPGAEITKIEIYKLSAGGSAGG [r6_776_TrROS_Hall] | 3.58 kcal/mol

* * *

Protocol Text: folding stability dG unfold from trypsin proteolysis; higher = more stable

Sequence | folding stability dG unfold
SIIIQFDNPEEAKENAEDFINEFQDEFGPGQKIPITIHDPGGDPATFPIEIEPPPPPVEYDEENGKLKPDSA [r9_596_TrROS] | 1.13 kcal/mol
SAGMISSVSSEPSTNTTTATIPETGKTITYNPETGTLTVTPPTGNPSVIPVETPEEAERAMEEVIAELSSAG [r5_467_JUSTAS] | 1.11 kcal/mol
SAGGSAGGSAGGSPSETLEVTLADGTRLTVTRNADGSLTVTVEPAPPPPVVVFKSPEELSAGGSAGGSAGGS [r4_120_TrROS_Hall] | 1.44 kcal/mol
SAGGSAGGSAGMEITRDKTPDGVWTVTITVPRPDGPSITVTVTGSPDGDFAPEKIAAVLASAGGSAGGSAGG [r11_759_JUSTAS] | 1.15 kcal/mol
SAGGSAGGSAGGGMAYTVETEVTLTPDGTRVVRTTVTIEDTEVEETHVTPVAPAAPEGLSAGGSAGGSAGGS [r10_898_JUSTAS] | -0.806 kcal/mol
SAGGKVVVLTFPKDNPEEVREALAKLPNVVRVEVEKVNDRYLAVAELEGELAVFVSLPDGRYVLLVLGSAGG [r13_907_TrMRF] | 2.36 kcal/mol
SAGGSAGGSAGGSKTVLLKVNGKLVLKELKVEVELEAEPETTTTTTTTTTLKPGETKTLSAGGSAGGSAGGS [r4_215_TrROS_Hall] | -0.499 kcal/mol

* * *

Protocol Text: folding stability dG unfold from trypsin proteolysis; higher = more stable
Bucketed by reported folding stability dG unfold, buckets being low group (below 0.9 kcal/mol), middle group (0.9 kcal/mol to below 2 kcal/mol), high group (2 kcal/mol or more)

Sequence | Group
SAGGSAGGSAGPVKLTLEVPEEEAEELAEALREAGYEVEIERDEETKRLRVTITVDPEALSAGGSAGGSAGG [r11_1043_TrROS_Hall] | middle group
SAGGSAGGSMVLNFEDTKPGVSPEEAAARVAAKIRAEHDVAVLGVEVETSPTGGYHITITVDPSAGGSAGGS [r12_781_JUSTAS] | low group
SAGVLTIEVQMPADDAEEFAEEVADTIARRLGFPPGFKIKVKVDRFDPDNGYVRVEATIEFPLPPNQPPSAG [r5_537_TrROS] | high group
SAGPKNAKPIGTVRIRNPNGRKINIMQWPNPIMVHIKPPDGKKREVPIRGAPMEEILDELAEDGWEVEPSAG [r5_613_TrROS] | low group
SAGGSAMLVIEIEVDGKKVTLVIEVPPEMTEEEIRELAEELAERLRALPGVKEVKVKIERVPPPPESAGGSA [r15_246_TrROS_Hall] | high group
SAMYEPAEFSFTLPNGEKIHITAPKNPNTDEPIVSITIYRKLPDGNTVSFTITVKSSDIDEIIEKLGIKSAG [r14_416_TrMRF] | high group
SAGGSDLITTEETFVGPGGEITLRTTTVDPKTGKTTTTTTTIPVIKGPPSDPAKIEAELKKRGIPLSAGGSA [r2_304_JUSTAS] | low group
SAGGSAGGPNIEIMSMFKHPNGTIVIFIRTPEGRYIVIKIPPPGNIKIVGVYPLPPGDPLLERLSAGGSAGG [r6_715_TrROS] | high group
SAGGSAGGSMLVEVEYEGGERRTFPLENRSVEEAVEALPEGVTRVRVTVYLGEKPVEFEVERPSAGGSAGGS [r12_767_TrMRF] | low group
SAGGSAMLTLLYRVPPGDPLAHAREIAEALEERFGAKVRILDVKVERDPVTREVYIPVVVELELPESAGGSA [r15_70_TrMRF] | low group
SAGGSAGGSAGGSGSMSVSGGPSVIVVTLPGGEKVVLPLDELDELYKLPYVSATTVSLPSAGGSAGGSAGGS [r4_348_JUSTAS] | middle group
SAGGSAGGKKTYRLEITIYNKDGKEIKKIEIEAETEEEALEAAKKLQEEAKKKGLKVEIKVEKVSAGGSAGG [r6_285_TrROS_Hall] | high group
SAGGSAGGSGMMTVELTETIVSETSVVTEKVPEKGEFIVEVLETSVSVVRRTLPLALYQALLESAGGSAGGS [r12_723_JUSTAS] | low group

* * *

Protocol Text: folding stability dG unfold from chymotrypsin proteolysis; higher = more stable
The threshold is inclusive: folding stability dG unfold of exactly 0.3 kcal/mol counts as 1 (yes); values below receive 0 (no).

Sequence | Group
SAGGSASSSLEVEVTAESPDPETGELRVTAVITTTYFDPSTGSTSTTTTTLTLTPEELAALVAALSSAGGSA [r2_357_JUSTAS] | 1 (yes)
SAGGSAGGSAGGSDDGSGVRLETFTVTGKGATVTLPDGSTLTVPADQTVTVTRLEVLPKSAGGSAGGSAGGS [r4_26_TrMRF] | 0 (no)
SAGGSAGGSPTYTIDVEKYPDGYYFLKIWMPGHNRKIEHPIPPDNPDKIDEITITPNGKIKIDSAGGSAGGS [r20_11_TrROS] | 1 (yes)
SAGGMPEPRPIPLTLTLLVDPEDPESVEEKLREFFEAFGADEITRVERELLPDGRALVTAEVLVNEPVSAGG [r13_222_TrMRF] | 1 (yes)
SAGGSAGGSAGMPLEELAQEALNQFQENGEPVEIDIEVETPNGEYFPFEVEINGDGLKIRSAGGSAGGSAGG [r11_954_TrROS] | 1 (yes)
SAGGSAGGSRLGLEEFERIAREIAEELGISDLVAEVEELEDDYALLTIYNPETGEKLEILVPGSAGGSAGGS [r12_1000_TrMRF] | 1 (yes)
SAGGGSVTVSLEGNTTYVRISREDGPERTYTFPQPNGEPLTFTEAPGRPGLITITRPATGEPVVLALSAGGS [r16_198_JUSTAS] | 0 (no)

* * *

Protocol Text: folding stability dG unfold from trypsin proteolysis; higher = more stable

Sequence | folding stability dG unfold, kcal/mol
SAGGSAGGSAMPEPVLIVVEVESLEEAKKLAEELAVEGVKVEVDPESGLVKIEIEKESLLESAGGSAGGSAG [r3_186_TrMRF] | 1.03
SAGGSAGGSAGGEIPIKIRPYDPKDGEPKDEHPIPFDTPNGNSLDEIAKQLPPDHFEVDISAGGSAGGSAGG [r17_339_TrROS] | 0.382
SAGGDKKKVKIHIFPPPGMPMDNFANYIQDQLGWDRNNIKVEPMDSPQEAERRAEKNGKPEIVIFFRSAGGS [r8_245_TrROS] | -0.216
SAGGETEVVETNASPAELAERVAEALAAGREVTVTLPDGTVLDAGPDLADLPADTPVRLEFTPAVAASAGGS [r16_31_JUSTAS] | 0.841
SAGGSAGGSAGGSIEPITIILPDKIIRIYRFEDGTIVEIIDPETGKPTFISLEDAKKLIGSAGGSAGGSAGG [r7_372_TrMRF] | 2.33
SAGGSAGGSAGGMFVRIEVDGKTILLEADSLEEALAAIRALLPPGEKVKVELVSEEELKSAGGSAGGSAGGS [r10_1167_TrROS_Hall] | 2.44
SAGGSAGGSAGGNIEVLPIPDGYWVIKIPDGRIMVFNPGRGEFEPIPIENVTIEPVRPGDSAGGSAGGSAGG [r7_656_TrROS] | 0.4

* * *

Protocol Text: folding stability dG unfold from chymotrypsin proteolysis; higher = more stable

Sequence | folding stability dG unfold
SAGGSAGGSAWHIRIHPGNEPQWIPIDDLRDKGLPPEELAEELQKKFGFKVEIVDPGWIRVKSAGGSAGGSA [r18_7_TrROS] | -0.364 kcal/mol
SAGGSAGGSAGGTKTIPFPIEEIEVEHNPDNNYYHVTIRFPDNGKPITFMFPPGDTITISAGGSAGGSAGGS [r10_819_TrROS] | 0.836 kcal/mol
SAGGSAGGSAGKKKVLMTVDEIEKKLGKKIKPGSLVLVEVENGKVKKIEIFDVKKKPKKKSAGGSAGGSAGG [r11_616_TrROS_Hall] | 1.07 kcal/mol
SAGGSASVEVSVEEKDGTLTVTVTVEVDGKLVTVTVTLTLPPPPPLSAEELEKAREAEKEGKTVEVSAGGSA [r15_631_TrROS_Hall] | 2.77 kcal/mol
SAGGSGMEKYTVTIDLKFYTPETGKTYTKTVTLTTTSIEEAIKAITEKLTPPDMKIEITSITVTPSSAGGSA [r2_320_JUSTAS] | 4.62 kcal/mol
SAGGSEIRVEYDPSTGELRVLIVLPDGSVILKTVRVEPIDPGIAPDGSPIGAAVSISVEIVPPGELSAGGSA [r2_195_TrMRF] | 3.5 kcal/mol
SAGGSAGGSAGGDWKMIEFYIPIEPDEPITIEIPDGVRIQIWRVDGYYKVTIMIPLEDISAGGSAGGSAGGS [r10_355_TrROS] | 3.71 kcal/mol
SAGGSAGGSAGGLSLKVKNKKTGKWYDIESIEVKKDPSSGKPVIKIKTSGPKEVEKELVSAGGSAGGSAGGS [r10_663_TrMRF] | -0.178 kcal/mol
SAGGSLVTTEFPGVTITTDPATGVLTVEASPEEVERLIEALGPEFNPVEIRRLPDGSYLLTLPVTPPSAGGS [r8_415_JUSTAS] | 2.04 kcal/mol
SAGGEWRKITVPIKYRFPPGESIDSIANELANLPGLKVEVNVEYEKDPDGRYYMEIPVEIEIPPGAPISAGG [r13_590_TrROS] | 0.669 kcal/mol
SKPMPADELMEQHPNMIMIRTPNDKHIFINPEENEIFRFNPDEGRVYWIPGTLEEIEELVPDNGFEIWPFSA [r9_721_TrROS] | 0.536 kcal/mol
SMKVERERRTIERTLPDGRKVKVEIDLFRPEDGKPWALIKITVTDENGVPTEREILAPAELAEKVIEELFSA [r9_189_TrMRF] | 1.78 kcal/mol
SEKIKELIKKLAEELNLKIVKIEKKEDGKIIIEFENGIKIEIEIDPEKKNKIKIKIEKTKNGKLKITIEPSA [r9_809_TrROS_Hall] | 2.65 kcal/mol
SAGGMVILVKDKDGRWRELSEEEIRRLAEELERRYNLEVEEVELEDGERYYLIRIEPPEVPGLSEEELSAGG [r13_790_TrROS_Hall] | 2.15 kcal/mol
SAGGSAGGSKKPIPVKVIETKPDPEIGGITTVELEFPDGSKATFTSIEDIEKIPDIEVEIKLGSAGGSAGGS [r20_192_TrMRF] | 0.639 kcal/mol
SAGGSAGGMKIEIFQNDDGIYVRIKLKPPNGPPRTMVFPFTANQIKDALKQFPNYKIEDIEVYRSAGGSAGG [r6_879_TrROS] | 2.18 kcal/mol
SAGGSAGGSAGGDNTKTLVLVIKVDENVTPEEIKKKLKDLGFKNVKIEKVGNYAVVTVSSAGGSAGGSAGGS [r10_868_TrMRF] | 3.15 kcal/mol
PEKVILVEVPAGEELTEEELKELAEALGLEVEIEKVKVTVTVTVEVTLPDGKKVKVETTETRTVVLVTVKDS [r1_238_TrROS_Hall] | 3.42 kcal/mol
SAGGSAGGSAGGLVAKVYRDGKEAVFYFDSPEEMVESIRPLFPDGKEVKVEVTTPEELFSAGGSAGGSAGGS [r10_1167_TrMRF] | 0.22 kcal/mol
SGMVEVKVTVPPGPATLTATPSDGSTYSKSIPANSEVTFTFPVPASLPSSTTITFTLTFPDTGTTTTTSVSA [r9_275_JUSTAS] | 1.26 kcal/mol
SAGGSAPWVTLPIIIMFDSPEQAVEEVKPIFQELFGIKDVNVEEEPMPNGMVFVPIEITIPAENMKSAGGSA [r15_173_TrROS] | 1.38 kcal/mol
SSSSEVKVERYPDSYLVTITIREGDKEVGTLSYPLNGSLTVEEVLEEVQKRYPDLPVSFSTSVPVPPPAPSA [r9_364_JUSTAS] | 3.88 kcal/mol
SAGGSMSESEVVEVTVGGKPVTITVHREDNRYSAEVTLPPGVRVVLPFGGPESPEKAVEEAVRALESAGGSA [r2_92_JUSTAS] | 0.508 kcal/mol
SAGGSAGGSAKPKVVLVEYDEKTGKFKIVFPDGKELEITGLTPEQIKELAKSLGADYVIIESAGGSAGGSAG [r3_78_TrMRF] | 4.06 kcal/mol
SAGSITIPIDDPEEMKDQLKNIAENFGMSNQDAEQFKDQLKENIEIHRDGDRWYITIQPPPPPDPGQPPSAG [r5_717_TrROS] | -0.145 kcal/mol
SAGGSMSIPLKTEEDVKKAVEYIKQKLLEEGAPEGLKIDKVEVTKLPDGTYKITITFPNKTFELVGSAGGSA [r2_120_JUSTAS] | 2.64 kcal/mol
SAGGYKYKREKYRDPENGQPRERYKREPPPPPPPSISININAPPEMADKIADILQDLLPNMPVGINGSAGGS [r8_437_TrROS] | 3.04 kcal/mol
